- System: SW-620 colon
- assay_notes: NCI tumour cell line growth inhibition, 48 h; in the data active = GI50 below about 0.43 µM; inactive = the rest
API: response.call in active, inactive

Below are worked cases with known answers.
CSc1ccc(-c2cn3ccsc3n2)cc1
inactive
COc1cc(/C=N\Nc2ccccc2)ccc1OC(=O)c1ccccc1
inactive
CCc1ccc([OH2+])c(C(=O)[O-])c1.CCc1ccc([OH2+])c(C(=O)[O-])c1.CCc1ccc([OH2+])c(C(=O)[O-])c1.CCc1ccc([OH2+])c(C(=O)[O-])c1.[Cu+2].[Cu+2]
inactive
COc1ccc(/C=C\c2cc(OC)c(OC)c(OC)c2)cc1NC(=O)/C=C/c1cc(OC)c(OC)c(OC)c1
inactive

Please state the recorded outcome for this compound: `COc1cc(OC)c(/C=C/S(=O)(=O)Cc2ccc(OC)c(N)n2)c(OC)c1`
active

Please state the recorded outcome for this compound: CCCCCn1sc(=O)n(Cc2ccc(CNC(=O)C(C)c3ccc(CC(C)C)cc3)cc2)c1=O (stereo unspecified)
active

====

- Tested on: NCI-H522 lung
- assay_notes: NCI tumour cell line growth inhibition, 48 h
Listed next: entries and their corresponding TGI.
Dear colleague, please return just the value in µM, with no unit written.

O=C1c2ccccc2-c2cn(Cc3ccccc3)c3cccc(c23)C1c1cccnc1 (stereo unspecified)
33.4
CO[C@H]1C[C@H](O[C@H]2CC[C@@]3(C)[C@H](CC[C@@H]4[C@@H]3CC[C@]3(C)[C@@H](C5=CC(=O)OC5)CC[C@]43O)C2)O[C@H](C)[C@H]1O
0.0197
COc1ccc([C@@H]2[C@@H](Cl)C(=O)N2c2cc(OC)c(OC)c(OC)c2)cc1C
0.0717

# ---- query molecule ----
Just so you know, measured TGI for `NN=C1/C(=C\c2ccccc2)CCC/C1=C/c1ccccc1` came out at 36.1

====

- System: RPMI-8226 leukemia
- assay_notes: NCI tumour cell line growth inhibition, 48 h
Listed next: entries and their corresponding TGI.

Answered examples (5):
O=C(/C=C/c1ccco1)Nc1ncc(Cc2cc(Cl)ccc2Cl)s1
> 100 µM
O=C(OC1C#CCSCC#C/C=C\1)c1ccc2c(c1)C(=O)c1ccccc1C2=O (stereo not given)
> 100 µM
CN1N=C(c2ccncc2)OC1c1ccc(C(F)(F)F)cc1 (stereo not given)
> 100 µM
CSCSCC(CO)NC(=O)/C=C/c1c(C)[nH]c(=O)[nH]c1=O (stereo not given)
> 100 µM
Cc1cc2nc3c(N)nn(CCCN(C)C)c3nc2cc1C
> 100 µM

Just so you know, measured TGI for COc1cc(/C=N/NC(=O)c2cnn3c2NC(c2ccccc2)C3)ccc1OCc1ccccc1 (stereo not given) came out at 23.6 µM

====

Listed next: entries and their corresponding TGI.
- System: DU-145 prostate
- assay_notes: NCI tumour cell line growth inhibition, 48 h

Answered examples (4):
O=C1c2cccc3cc([N+](=O)[O-])cc(c23)C(=O)N1c1ccc(OCCN2CCCC2)cc1
> 100 µM
COc1oc(C2C/C(=C/C(C)=C/C(C)=C/C(C)=C/c3ccc([N+](=O)[O-])cc3)CO2)c(C)c(=O)c1C (stereo not given)
> 47.3 µM
C=C(CN1CCN(c2cc(C(F)(F)F)cc(C(F)(F)F)c2)CC1)c1ccc(C(=O)Nc2ccccc2N)cc1
> 100 µM
CSC(SC)=C(C#N)C(=O)Nc1ccc(Cl)cc1
> 100 µM

# ---- query compound ----
Just so you know, measured TGI for `Cc1cccc(NC(=S)NNC(=O)c2cc(-c3ccccc3)nc3ccccc23)c1` came out at > 100 µM

====

- System: OVCAR-8 ovarian
- assay_notes: NCI tumour cell line growth inhibition, 48 h
Listed next: entries and their corresponding TGI.

Answered examples (4):
C=C1C(C)C2C(Cc3ccccc3)NC(=O)C23C(OC(C)=O)C=CC(C)(O)C(=O)C(C)C/C=C/C3C1O (stereo not given)
> 500 µM
CC(=O)O[C@H]1CSC[C@@H](OC(C)=O)C1[N+](=O)[O-] (stereo not given in full)
> 100 µM
O=C1c2ccccc2CC12Cc1ccc3c(c1C2=O)CCCC3 (stereo not given)
> 100 µM
N#Cc1ccc2c(-c3ccnc(NC4CC4)n3)c(-c3ccc(F)cc3)nn2c1
> 25 µM

Just so you know, measured TGI for CC(=O)OC1COC(N2C(=O)C(=O)c3ccccc32)C(OC(C)=O)C1OC(C)=O (stereo not given) came out at > 100 µM

====

- Test system: CCRF-CEM leukemia
- assay_notes: NCI tumour cell line growth inhibition, 48 h
parameter_measured: TGI

Answered examples (2):
OC[C@H]1C[C@](O)(c2ccccc2Cl)[C@@H](c2ccccc2Cl)O1
> 100 µM
C=CC[PH+](c1ccccc1)c1ccccc1.C=CC[PH+](c1ccccc1)c1ccccc1.[Pt+2].[S-]c1nc2ccccc2[nH]1.[S-]c1nc2ccccc2[nH]1
> 100 µM

Just so you know, measured TGI for `CC(C)(c1ccc(C=O)o1)c1ccc(C(C)(C)c2ccc(C=O)o2)o1` came out at > 100 µM

Just so you know, measured TGI for `O=C(c1ccccc1)c1nn(-c2cccc(Cl)c2)c2nc3nc(-c4ccccc4)cc(=O)n3nc12` came out at > 25 µM

Just so you know, measured TGI for `O=C1OCc2nc3c(c(-c4ccccc4C(F)(F)F)c21)C(=O)OC3` came out at > 100 µM

====

- Test system: SK-MEL-2 melanoma
- assay_notes: NCI tumour cell line growth inhibition, 48 h
parameter_measured: TGI

Answered examples (3):
CN(C)NC(=O)NC12CC3CC(CC(C3)C1)C2
> 100 µM
CC/C(CC(=O)CCC(=O)Nc1ccc(C)c(C)c1)=N\NC(=O)c1cc2ccccc2cc1O
> 100 µM
CC1=C(\C=C/C(C)=C/C=C/C(C)=C/C=C/C=C(C)\C=C\C=C(C)/C=C/C2=C(C)CCCC2(C)C)C(C)(C)CCC1
> 100 µM

Just so you know, measured TGI for `Cc1ccc2c(c1)CC1(Cc3cc(C)ccc3C1=O)C2=O` came out at > 100 µM

Just so you know, measured TGI for `N#C/C(=C/c1ccc([N+](=O)[O-])o1)c1ccccc1` came out at > 100 µM

Just so you know, measured TGI for `Nc1nc(N)c(CCCCc2ccc([N+](=O)[O-])cc2)c(N)n1` came out at > 100 µM

====

- System: OVCAR-4 ovarian
- assay_notes: NCI tumour cell line growth inhibition, 48 h
Listed next: entries and their corresponding TGI.

Just so you know, measured TGI for CCOC(=O)C(=O)CC(=O)C(Br)C(Br)c1ccc(Cl)cc1 (stereo not given) came out at > 100 µM

Just so you know, measured TGI for `O=C(c1ccccc1)c1nn(-c2cccc(Cl)c2)c2nc3nc(-c4ccccc4)cc(=O)n3nc12` came out at > 25 µM

Just so you know, measured TGI for `O=c1[nH]nc(-c2cccc([N+](=O)[O-])c2)[nH]1` came out at > 100 µM

Just so you know, measured TGI for `COc1ccc2nc(-c3ccc(N)cc3)sc2c1` came out at > 100 µM

Just so you know, measured TGI for `N#CCCN(C(=O)Nc1ccc(NC(=O)N(CCC#N)c2ccccc2)cc1)c1ccccc1` came out at > 100 µM

Just so you know, measured TGI for `COc1ccc2c(c1O)[C@@]13CCCC=C1[C@@H](C2)N(C)CC3` came out at > 100 µM

Just so you know, measured TGI for C=C(C)[C@@H]1CC[C@]2(C(=O)O)CC[C@]3(C)[C@H](CC[C@@H]4[C@@]5(C)CCC(N)C(C)(C)[C@@H]5CC[C@]43C)[C@@H]12 (stereo not given in full) came out at > 100 µM

Just so you know, measured TGI for CC1CCc2c(C(=O)Nc3ncc(Cc4cccc([N+](=O)[O-])c4)s3)csc2C1 (stereo not given) came out at > 100 µM

Just so you know, measured TGI for `O=C(O)CN(CCN(CC(=O)O)CC(=O)O)CC(=O)O.[Cu+2].[Na+]` came out at > 100 µM

Just so you know, measured TGI for `Cc1[nH]c2c(C)c3c([nH]c4ccc(Cl)cc43)c(C)c2c(=O)c1C` came out at > 64.1 µM

====

Listed next: entries and their corresponding TGI.
- Test system: SF-539 CNS
- assay_notes: NCI tumour cell line growth inhibition, 48 h

Answered examples (4):
O=C(c1ccccc1)c1nn(-c2cccc(Cl)c2)c2nc3nc(-c4ccccc4)cc(=O)n3nc12
> 25 µM
COC(=O)[C@@H]1CN(C(=O)Cc2ccccc2)C(=O)N1
> 100 µM
O=C1c2ccccc2C(=O)c2c1ccc1c3ccccc3n(-c3ccccc3)c21
43.6 µM
CCOC(=O)c1cccc(N=NNc2cccc(C(=O)OCC)c2)c1
36.6 µM

Just so you know, measured TGI for CCOC(=O)C(Oc1ccc(OC)c2c1C(=O)CCC2)c1ccccc1 (stereo unspecified) came out at > 100 µM

Just so you know, measured TGI for `O=C(O)CN(CCN(CC(=O)O)CC(=O)O)CC(=O)O.[Cu+2].[Na+]` came out at > 100 µM
